FYI, the data here is from PubChem BioAssay (NCI).

Tested on: LXFL 529 NSCLC
test-description: NCI tumour cell line growth inhibition, 48 h

compound: COc1ccc(C2S/C(=C\c3ccc([N+](=O)[O-])cc3)C(=O)N2NC(=O)Cc2ccccc2)cc1 (stereo not given)
TGI: > 100 µM
//
compound: CC[C@H](C)C(=O)O[C@H]1C[C@@H](C)C=C2C=C[C@H](C)[C@H](CC[C@@H]3C[C@@H](O)CC(=O)O3)[C@H]21
TGI: > 30 µM
//
compound: CC(C)C1COC(C(C)(C)C2=N[C@@H](C(C)C)CO2)=N1 (stereo not given in full)
TGI: > 100 µM
//
compound: FC(F)(F)c1nc2c(ccc3[nH]c4c(-c5ccccc5)nccc4c32)[nH]1
TGI: > 100 µM
//
compound: N#CC1=C(N)Oc2c(ccc3cccnc23)C1c1ccccc1 (stereo not given)
TGI: > 100 µM
//
compound: O=C(c1nc2ccc(Cl)cc2[nH]c1=O)C(O)c1ccco1 (stereo not given)
TGI: > 100 µM
//
compound: C[C@@]12[Se]c3ccccc3[C@]1(C)[Se]c1ccccc12
TGI: > 100 µM
//
compound: O=C(c1nc2ccc(Cl)cc2[nH]c1=O)C(O)c1cccc([N+](=O)[O-])c1 (stereo not given)
TGI: > 100 µM
//
compound: C=C(CN(C)C)C(=O)c1ccccc1Cl
TGI: 26 µM
//
compound: CC1=C(c2ccccc2)CON(c2ccccc2)C1
TGI: > 100 µM
